molecular target: KRAS G12C (Homo sapiens (Human), UniProt P01116, C118A/G12C); assay: 2 h coupled exchange assay; type: biochemical; conditions: Avg 2 h Coupled exchange IC50, 2 h compound pre-incubation, SOS-mediated nucleotide exchange
Sequence (P01116 other isoform, or with tags, fused parts or gaps G12C/C118A): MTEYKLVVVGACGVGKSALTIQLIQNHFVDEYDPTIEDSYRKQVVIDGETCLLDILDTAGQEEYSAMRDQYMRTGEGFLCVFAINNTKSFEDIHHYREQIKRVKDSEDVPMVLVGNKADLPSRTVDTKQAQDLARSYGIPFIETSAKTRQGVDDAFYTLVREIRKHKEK
READOUT_KIND: log10(IC50) (log10 of the value in nM)

[
  {
    "COMPOUND": "C=CC(=O)N1CC2(CCN(c3nc4c(c(-c5ccccc5Cl)c3C#N)CC[C@@H](c3ccnn3C)C4)C2)C1",
    "MEASURED_TARGET": "KRAS G12C (Homo sapiens (Human), UniProt P01116, C118A/G12C)",
    "log10(IC50)": 1.08
  },
  {
    "COMPOUND": "C=CC(=O)N1CC2(CCN(c3nc4c(c(-c5c(C)ccc6[nH]ncc56)c3C#N)CC(C3CC3)C4)C2)C1 (stereo not shown)",
    "MEASURED_TARGET": "KRAS G12C (Homo sapiens (Human), UniProt P01116, C118A/G12C)",
    "log10(IC50)": 1.93
  },
  {
    "COMPOUND": "C=CC(=O)N1CC2(CCN(c3nc(-c4ccccc4F)c4c(n3)N(C)CCC4)C2)C1",
    "MEASURED_TARGET": "KRAS G12C (Homo sapiens (Human), UniProt P01116, C118A/G12C)",
    "log10(IC50)": 5.24
  },
  {
    "COMPOUND": "C=CC(=O)N1CC2(CCN(c3nc4c(c(-c5c(Cl)ccc6[nH]ncc56)c3C#N)COC(C)(C)C4)C2)C1",
    "MEASURED_TARGET": "KRAS G12C (Homo sapiens (Human), UniProt P01116, C118A/G12C)",
    "log10(IC50)": 1.41
  },
  {
    "COMPOUND": "C=CC(=O)N1CC2(CCN(c3nc4c(c(-c5cccc6cc(O)ccc56)c3C)CCC(C)(C)C4)C2)C1 (single isomer, unassigned) [Example 2-15]",
    "MEASURED_TARGET": "KRAS G12C (Homo sapiens (Human), UniProt P01116, C118A/G12C)",
    "log10(IC50)": 1.82
  },
  {
    "COMPOUND": "C=CC(=O)N1CC2(CCN(c3nc4c(c(-c5cc(O)ccc5Cl)n3)CCCC4)C2)C1",
    "MEASURED_TARGET": "KRAS G12C (Homo sapiens (Human), UniProt P01116, C118A/G12C)",
    "log10(IC50)": 3.93
  },
  {
    "COMPOUND": "C=CC(=O)N1CC2(CCN(c3cc4c(c(-c5c(C)ccc6[nH]ncc56)c3C#N)COCC4)C2)C1 (single isomer, unassigned) [Example 2-100]",
    "MEASURED_TARGET": "KRAS G12C (Homo sapiens (Human), UniProt P01116, C118A/G12C)",
    "log10(IC50)": 1.52
  },
  {
    "COMPOUND": "C=CC(=O)N1CC2(CCN(c3nc4c(c(-c5c(C)ccc6[nH]ncc56)c3C#N)CCC(C)(C)C4)C2)C1 (single isomer, unassigned) [Example 1-10]",
    "MEASURED_TARGET": "KRAS G12C (Homo sapiens (Human), UniProt P01116, C118A/G12C)",
    "log10(IC50)": 3.83
  },
  {
    "COMPOUND": "C=CC(=O)N1CC2(CCN(c3nc4cc(OC)ccc4c(-c4c(C)ccc5[nH]ncc45)c3C#N)C2)C1",
    "MEASURED_TARGET": "KRAS G12C (Homo sapiens (Human), UniProt P01116, C118A/G12C)",
    "log10(IC50)": 1.51
  },
  {
    "COMPOUND": "Cc1ccc2[nH]ncc2c1-c1c(C#N)c(N2CCC3(CN(C(=O)/C=C/CO)C3)C2)nc2c1CCC(C)(C)C2",
    "MEASURED_TARGET": "KRAS G12C (Homo sapiens (Human), UniProt P01116, C118A/G12C)",
    "log10(IC50)": 2.51
  },
  {
    "COMPOUND": "C=CC(=O)N1CC2(CCN(c3nc(-c4ccccc4F)c4c(n3)N([C@H](CC(=O)NC)CC(C)C)CC4)C2)C1 (single isomer, unassigned)",
    "MEASURED_TARGET": "KRAS G12C (Homo sapiens (Human), UniProt P01116, C118A/G12C)",
    "log10(IC50)": 2.84
  },
  {
    "COMPOUND": "C=CC(=O)N1CC2(CCN(c3nc4c(c(-c5c(C)c(Cl)cc6cnn(C)c56)c3Cl)COC(C)(C)C4)C2)C1 (single isomer, unassigned) [Example 2-90]",
    "MEASURED_TARGET": "KRAS G12C (Homo sapiens (Human), UniProt P01116, C118A/G12C)",
    "log10(IC50)": 0.70
  },
  {
    "COMPOUND": "C=CC(=O)N1CC2(CCN(c3nc4c(c(-c5c(C)cccc5O)c3C#N)C[C@H]3C[C@@H]4C3)C2)C1 (single isomer, unassigned) [Example 13-39]",
    "MEASURED_TARGET": "KRAS G12C (Homo sapiens (Human), UniProt P01116, C118A/G12C)",
    "log10(IC50)": 2.81
  },
  {
    "COMPOUND": "C=CC(=O)N1CC2(CCN(c3nc4c(c(-c5ccccc5Cl)c3C#N)CC(C)(C)C4)C2)C1 (single isomer, unassigned) [Example 13-24]",
    "MEASURED_TARGET": "KRAS G12C (Homo sapiens (Human), UniProt P01116, C118A/G12C)",
    "log10(IC50)": 3.26
  },
  {
    "COMPOUND": "C=CC(=O)N1CC2(CCN(c3nc4c(c(-c5c(N)c(Cl)cc(Cl)c5F)c3C#N)COC(C)(C)C4)C2)C1 (single isomer, unassigned) [Example 13-156]",
    "MEASURED_TARGET": "KRAS G12C (Homo sapiens (Human), UniProt P01116, C118A/G12C)",
    "log10(IC50)": 5.15
  },
  {
    "COMPOUND": "C=CC(=O)N1CC2(CCN(c3nc4c(c(-c5c(C)ccc6cnn(C)c56)c3C)CCC(C)(C)C4)C2)C1 (single isomer, unassigned) [Example 2-20]",
    "MEASURED_TARGET": "KRAS G12C (Homo sapiens (Human), UniProt P01116, C118A/G12C)",
    "log10(IC50)": 4.02
  },
  {
    "COMPOUND": "C=CC(=O)N1CC2(CCN(c3cn4ncnc4c(-c4c(C)ccc5[nH]ncc45)c3C#N)C2)C1",
    "MEASURED_TARGET": "KRAS G12C (Homo sapiens (Human), UniProt P01116, C118A/G12C)",
    "log10(IC50)": 2.74
  },
  {
    "COMPOUND": "C=CC(=O)N1CC2(CCN(c3nc4c(c(-c5c(C)ccc6[nH]ncc56)c3C)CCC(C)(C)C4)C2)C1 (single isomer, unassigned) [Example 2-11]",
    "MEASURED_TARGET": "KRAS G12C (Homo sapiens (Human), UniProt P01116, C118A/G12C)",
    "log10(IC50)": 1.43
  },
  {
    "COMPOUND": "C=CC(=O)N1CC2(CCN(c3nc4c(c(-c5cc(Cl)cc6ccn(C)c56)c3C#N)COC(C)(C)C4)C2)C1 [Example 12-8]",
    "MEASURED_TARGET": "KRAS G12C (Homo sapiens (Human), UniProt P01116, C118A/G12C)",
    "log10(IC50)": 2.60
  },
  {
    "COMPOUND": "C=CC(=O)N1CC2(CCN(c3cn4c(C)cnc4c(-c4c(C)ccc5[nH]ncc45)c3C#N)C2)C1",
    "MEASURED_TARGET": "KRAS G12C (Homo sapiens (Human), UniProt P01116, C118A/G12C)",
    "log10(IC50)": 2.60
  },
  {
    "COMPOUND": "C=CC(=O)N1CC2(CCN(c3nc4c(ccn4C)c(-c4c(C)ccc5[nH]ncc45)c3C#N)C2)C1",
    "MEASURED_TARGET": "KRAS G12C (Homo sapiens (Human), UniProt P01116, C118A/G12C)",
    "log10(IC50)": 2.70
  },
  {
    "COMPOUND": "C=CC(=O)N1CC2(CCN(c3nc4c(c(-c5cc(O)ccc5C)c3C#N)[C@H]3CC[C@@H]4C3)C2)C1 (stereo in doubt) [Example 14-9]",
    "MEASURED_TARGET": "KRAS G12C (Homo sapiens (Human), UniProt P01116, C118A/G12C)",
    "log10(IC50)": 1.96
  },
  {
    "COMPOUND": "C=CC(=O)N1CC2(CCN(c3nc4c(c(-c5c(C)ccc6cnn(C)c56)c3C#N)[C@@H]3CC[C@H]4C3)C2)C1 (single isomer, unassigned) [Example 14-17]",
    "MEASURED_TARGET": "KRAS G12C (Homo sapiens (Human), UniProt P01116, C118A/G12C)",
    "log10(IC50)": 1.34
  },
  {
    "COMPOUND": "C=CC(=O)N1CC2(CCN(c3nc4c(c(-c5c(C)ccc6[nH]ncc56)c3C#N)CC3(CC3)C4)C2)C1",
    "MEASURED_TARGET": "KRAS G12C (Homo sapiens (Human), UniProt P01116, C118A/G12C)",
    "log10(IC50)": 1.53
  },
  {
    "COMPOUND": "C=CC(=O)N1CC2(CCN(c3nc4c(c(-c5c(C)c(C)cc6cnn(C)c56)c3C#N)CCC(C)(C)C4)C2)C1",
    "MEASURED_TARGET": "KRAS G12C (Homo sapiens (Human), UniProt P01116, C118A/G12C)",
    "log10(IC50)": 1.54
  }
]
